# measured.on: MeCP2-TBL1 interaction (MeCP2-SmBiT / TBL1-LgBiT) (Mus musculus)
# Construct: expressed in transfected cells; crude lysate used as a cell-free assay
# Sequence (Q9QXE7 166-527): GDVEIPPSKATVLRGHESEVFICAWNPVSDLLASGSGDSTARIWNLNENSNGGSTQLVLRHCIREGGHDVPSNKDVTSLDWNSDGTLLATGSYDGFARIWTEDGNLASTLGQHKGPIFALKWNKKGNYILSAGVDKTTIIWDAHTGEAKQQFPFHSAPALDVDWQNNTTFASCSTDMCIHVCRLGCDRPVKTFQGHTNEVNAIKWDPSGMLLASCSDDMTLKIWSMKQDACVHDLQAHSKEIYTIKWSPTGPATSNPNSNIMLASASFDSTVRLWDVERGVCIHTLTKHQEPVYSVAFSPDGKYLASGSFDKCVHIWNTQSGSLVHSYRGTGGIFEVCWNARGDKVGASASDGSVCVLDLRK
# assay.remarks: MeCP2-TBL1 NanoLuc luciferase complementation assay (cell-free, extracts of transfected HEK293 cells);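 also: each compound tested at 20 µM final concentration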
# Assay type: binding, human
# assay.context: primary screen of the Asinex library, sheet "Sargen output Asinex library", one well per compound, Batch Ref. 1
quantity: Inhibition percent (%)
Just the number please, in %, no unit attached.

COc1cccc([C@@H]2C[C@]3(C)NC(=O)CCCC[C@@H]3N2CC(=O)Nc2cc(C)n(C)n2)c1 [BDH_33624491] : -2.56

Task item: Need Inhibition percent of C[C@]12C[C@@H](Cc3ccccc3)N(C(=O)C3CCN(Cc4cccnc4)CC3)[C@H]1CCCC(=O)N2 [BDH_33630330] , thanks.
Reply: -0.000826

Task item: Need Inhibition percent of CC(=O)N[C@@H]1CCO[C@H](c2ccc(NC(=O)C(c3ccccc3)c3ccccc3)cc2)C1 [BDF_23111075] , thanks.
Reply: 0.91

Task item: Need Inhibition percent of Cn1cc(-c2ccc(C(=O)N3CCCC(c4cccc(Cc5ccc(F)cc5)n4)C3)cn2)cn1 (stereo not shown) [BDH_32365364] , thanks.
Reply: 4.12

Task item: Need Inhibition percent of Cn1c(CCC(=O)N2CC[C@@H]3[C@H]2CCCC(=O)N3Cc2ccc(F)cc2)nc2ccccc21 [BDG_23960040] , thanks.
Reply: 1.86

Task item: Need Inhibition percent of COc1ccccc1Cc1ccc(C(=O)N2CCC(c3cccc(-c4cncn4C)n3)CC2)cn1 [BDH_33521315] , thanks.
Reply: 0.21

Task item: Need Inhibition percent of CC(=O)N[C@H]1C[C@@H](C(=O)N(C)C)N(CC(=O)NCc2ccccc2Cl)[C@H]1c1ccccc1 [BDH_33626360] , thanks.
Reply: 0.20

---

Listing of recorded Inh (PKA) by entry.
# System: PRKACA-PRKAR2A interaction (SmBiT-PRKACA / LgBiT-PRKAR2A), protein kinase A
# Parameters: NanoLuc complementation counter-screen in cell extract, PRKACA with PRKAR2A, loss of luminescence, detects NanoLuc interference
# assay.context: counter-screen for NanoLuc interference; 0.5 h, 20 µM; inhibitor
Just the number please, in %, no unit attached.

Use these answered entries as a reference point.
CCC(CC)(NC(=O)C(C)C)C(=O)N[C@@H](CCCN=C(N)N)C(=O)NC1(C(=O)NC(c2ccc(F)cc2)c2ccc(F)cc2)CCCC1 [UM0142313:01, MM-102] : 12.23
Cc1cc(C)c(CNC(=O)c2cc(-c3ccc(N4CCN(C)CC4)nc3)cc3c2c(C)cn3C(C)C)c(=O)[nH]1 [UM0142656:01, GSK503] : 4.717
Cc1ccc(NC(=O)c2cccc(C(C)(C)C#N)c2)cc1Nc1ccc2ncn(C)c(=O)c2c1 [UM0127965:02, AZ 628] : 24.58

Task item: Given the entry O=C1C2CCN(CC2)C1(CO)CO [UM0141841:01, PRIMA-1] , what Inh (PKA) was observed with PRKACA-PRKAR2A interaction (SmBiT-PRKACA / LgBiT-PRKAR2A), protein kinase A?
Reply: 1.308
